- test.system: T1, cSNK:BSA conjugate (bovine, head-to-tail cyclized; conjugated to BSA carrier)
- T1 construct: also called BSA-cSNK
- T1 sequence (P02769 25-607 limits assumed): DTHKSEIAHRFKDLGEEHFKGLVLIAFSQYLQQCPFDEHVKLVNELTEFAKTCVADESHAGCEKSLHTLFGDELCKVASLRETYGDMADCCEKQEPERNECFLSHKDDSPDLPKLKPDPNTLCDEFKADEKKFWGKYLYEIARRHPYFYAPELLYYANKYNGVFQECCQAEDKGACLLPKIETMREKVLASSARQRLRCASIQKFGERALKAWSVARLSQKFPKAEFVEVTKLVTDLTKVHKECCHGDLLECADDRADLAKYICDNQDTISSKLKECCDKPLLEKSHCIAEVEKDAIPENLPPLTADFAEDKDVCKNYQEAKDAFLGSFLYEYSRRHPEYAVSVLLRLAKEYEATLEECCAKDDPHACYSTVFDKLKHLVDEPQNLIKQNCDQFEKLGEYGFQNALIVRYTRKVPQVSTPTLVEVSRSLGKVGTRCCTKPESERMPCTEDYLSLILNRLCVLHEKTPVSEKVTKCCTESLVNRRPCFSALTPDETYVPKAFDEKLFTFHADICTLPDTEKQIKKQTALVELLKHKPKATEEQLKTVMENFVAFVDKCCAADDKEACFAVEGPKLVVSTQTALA
- test.name: BLI (Octet RED96), 2:1 kinetics, KD2, summary table
value.kind: Kd

Enquiry: What measured Kd goes with hu5E3-IgG4 (antibody, V domains shown, human IgG4/kappa; also called humanized 5E3 IgG4) VH: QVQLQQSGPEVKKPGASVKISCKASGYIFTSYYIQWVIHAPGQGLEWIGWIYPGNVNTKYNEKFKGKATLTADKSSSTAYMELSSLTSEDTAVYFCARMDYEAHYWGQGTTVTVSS VL: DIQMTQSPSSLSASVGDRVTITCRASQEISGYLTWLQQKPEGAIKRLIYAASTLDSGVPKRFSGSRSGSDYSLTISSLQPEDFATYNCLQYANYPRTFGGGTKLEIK ?
Return: 0.304 nM
